System: Mus musculus
assayProcedure: Inhibition of LPS-induced TNF-alpha release in mice at 20 mg/kg
Type: functional, organism-based
Parameters: dose 20 mg/kg
pIC50: −log10 of the molar value.
pIC50 values, listed per item

{"smilesEntry": "CN1CCC(O)(c2nc(-c3ccc(F)cc3)c(-c3ccncc3)[nH]2)CC1", "assayedSystem": "Mus musculus", "pIC50": 7.82}
{"smilesEntry": "CN1CCC(O)(c2cc(-c3ccncc3)c(-c3ccc(F)cc3)[nH]2)CC1", "assayedSystem": "Mus musculus", "pIC50": 6.90}
{"smilesEntry": "CN1CCC(O)(c2nc(-c3ccc(F)cc3)c(-c3ccncc3)s2)CC1", "assayedSystem": "Mus musculus", "pIC50": 6.84}
{"smilesEntry": "CN1CCC(O)(c2nc(-c3ccc(F)cc3)c(-c3ccncc3)o2)CC1", "assayedSystem": "Mus musculus", "pIC50": 6.74}
